# assayed.target: CLK2 kinase (Homo sapiens, UniProt P49760)
# Sequence (P49760 whole entry): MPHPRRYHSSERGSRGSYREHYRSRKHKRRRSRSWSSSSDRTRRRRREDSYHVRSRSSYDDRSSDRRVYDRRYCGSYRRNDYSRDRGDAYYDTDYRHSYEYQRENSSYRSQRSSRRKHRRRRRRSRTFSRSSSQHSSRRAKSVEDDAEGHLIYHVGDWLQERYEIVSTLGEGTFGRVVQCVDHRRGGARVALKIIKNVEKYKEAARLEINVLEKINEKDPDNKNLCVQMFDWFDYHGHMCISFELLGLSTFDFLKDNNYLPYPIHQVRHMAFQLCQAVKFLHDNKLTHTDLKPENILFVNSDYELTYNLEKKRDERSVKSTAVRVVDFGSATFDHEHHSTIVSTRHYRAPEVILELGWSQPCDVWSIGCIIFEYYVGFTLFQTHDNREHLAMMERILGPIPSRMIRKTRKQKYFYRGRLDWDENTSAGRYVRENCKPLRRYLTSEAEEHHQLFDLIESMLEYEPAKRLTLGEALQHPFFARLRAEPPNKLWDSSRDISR
# experiment.notes: CLK2 kinase activity assay (Z-lyte FRET);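 note: FRET read-out as coumarin to fluorescein emission ratio, unphosphorylated peptide as 0% and phosphorylated peptide as 100% controls, duplicate reactions, non-linear regression fit of dose-response curves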
# test.settings: Z-lyte Ser/Thr 6 peptide, 60 μM ATP, 1 h at room temperature
Listed here: items and their measured EC50.
quantity.name: EC50 (nM)

{"columns": ["molecular.string", "observed.value"],
 "data": [
  ["CC(C)(C)C(=O)Nc1cncc(-c2cc3c(-c4cc5c(-c6ccncc6)cncc5[nH]4)n[nH]c3cn2)c1", 9],
  ["Cc1ncc(C(=O)Nc2cc3cc(-c4cnc(C)n4C)ccc3cn2)s1", 2],
  ["Cc1n[nH]c2ccc(-c3cncc(OCC4(F)CNC4)n3)cc12", 6],
  ["O=C(Nc1cncc(-c2ccc3[nH]nc(-c4cc5cnccc5[nH]4)c3c2)c1)C1CCC1", 2],
  ["CN1CCN(c2cncc3[nH]c(-c4n[nH]c5ccc(-c6cccnc6)cc45)nc23)CC1", 1],
  ["CN1CCN(c2cccc3[nH]c(-c4n[nH]c5ncc(-c6cncc(CN7CCCCC7)c6)cc45)cc23)CC1", 12],
  ["CN1CCN(c2nccc3[nH]c(-c4n[nH]c5ccc(-c6cncc(N)c6)nc45)nc23)CC1", 2],
  ["CN1CCN(c2nccc3[nH]c(-c4n[nH]c5cnc(-c6cncc(N)c6)cc45)cc23)CC1", 10]
]}

Where these numbers come from: patent US20230000842A1
